# target-of-assay: Cannabinoid receptor 1 (Mus musculus, UniProt P47746)
# Sequence (P47746 whole entry): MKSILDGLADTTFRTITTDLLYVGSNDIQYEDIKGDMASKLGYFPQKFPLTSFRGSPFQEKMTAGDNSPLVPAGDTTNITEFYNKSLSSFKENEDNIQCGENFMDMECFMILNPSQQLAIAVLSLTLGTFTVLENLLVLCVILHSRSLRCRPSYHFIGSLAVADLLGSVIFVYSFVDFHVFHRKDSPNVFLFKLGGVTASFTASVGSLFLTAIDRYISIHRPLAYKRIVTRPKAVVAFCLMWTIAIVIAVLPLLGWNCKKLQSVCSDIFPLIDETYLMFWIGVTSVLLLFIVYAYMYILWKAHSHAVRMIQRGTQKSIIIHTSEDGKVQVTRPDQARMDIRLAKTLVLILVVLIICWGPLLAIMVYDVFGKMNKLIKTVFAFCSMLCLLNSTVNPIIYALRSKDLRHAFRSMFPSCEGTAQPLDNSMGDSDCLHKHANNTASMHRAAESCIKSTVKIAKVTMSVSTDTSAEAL
# test-name: Displacement of [3H]CP 55940 from CB1 receptor in mouse whole brain membrane homogenates after 90 mins by liquid scintillation counting
# Format: cell membranes
result-type: pKi
In plain terms, pKi is the concentration in mol/L turned into minus its base-10 logarithm.

Guide cases for pKi, answers given:
O=C1/C(=C/c2cn(Cc3ccc(Cl)cc3)c3ccccc23)N2CCC1CC2 ... 7.50
COC(=O)c1ccc(Cn2cc(/C=C3/C(=O)C4CCN3CC4)c3ccccc32)cc1 ... 6.02
OC1/C(=C/c2cn(Cc3ccccc3)c3ccccc23)N2CCC1CC2 (racemic) ... 6.27

Data request: What does the record list as pKi for O=C1/C(=C/c2cn(Cc3ccc(F)cc3)c3ccccc23)N2CCC1CC2 ?
Data returned: 8.03

Data request: What does the record list as pKi for COC(=O)c1ccc2c(/C=C3/C(=O)C4CCN3CC4)cn(Cc3ccccc3)c2c1 ?
Data returned: 7.07

Data request: What does the record list as pKi for O=C1/C(=C/c2cn(Cc3ccccc3Br)c3ccccc23)N2CCC1CC2 ?
Data returned: 6.20
